Source of measurements: paper PMC11478212

Assay: Resistance to degradation in 25% fetal bovine serum
Assay type: in vitro ADME
Details: 25% fetal bovine serum in water, 37 °C, 6 h; HPLC peak area vs t = 0 h; triplicate; read-out: peptide remaining intact after 6 h
Where no end group is shown, it is not given here.
Recorded remaining at 6 h by entry
Report only the number, with the unit % understood.

Substance	Endpoint label	Value measured
ALGKFWPKIKSLF-NH2 [AFPK-IsCT1]	remaining at 6 h	8

Please report remaining at 6 h for the following substance: H-ILKKIWKGKKSLF-NH2 [KKK-IsCT1]
8

###

Experiment: Resistance to degradation in 25% fetal bovine serum
Type: in vitro ADME
Settings: 25% fetal bovine serum in water, 37 °C, 30 min; HPLC peak area vs t = 0 h; triplicate
Recorded metabolised at 0.5 h by entry
Report only the number, with the unit % understood.

Substance	metabolised at 0.5 h, %
Ac-ALGKFWPKIKSLF-NH2 [AC-AFPK-IsCT1]	18

Please examine the following record next.
Please report metabolised at 0.5 h for the following substance: Ac-ILKKIWKGKKSLF-NH2 [AC-KKK-IsCT1]
50
